Hi there, I'd appreciate the recorded % inhibition T4 40' for every entry that follows.
experimental_system: bacteriophage T4 DNA polymerase (Enterobacteria phage T4, UniProt P04415)
Construct: made in house
Sequence (P04415 whole entry): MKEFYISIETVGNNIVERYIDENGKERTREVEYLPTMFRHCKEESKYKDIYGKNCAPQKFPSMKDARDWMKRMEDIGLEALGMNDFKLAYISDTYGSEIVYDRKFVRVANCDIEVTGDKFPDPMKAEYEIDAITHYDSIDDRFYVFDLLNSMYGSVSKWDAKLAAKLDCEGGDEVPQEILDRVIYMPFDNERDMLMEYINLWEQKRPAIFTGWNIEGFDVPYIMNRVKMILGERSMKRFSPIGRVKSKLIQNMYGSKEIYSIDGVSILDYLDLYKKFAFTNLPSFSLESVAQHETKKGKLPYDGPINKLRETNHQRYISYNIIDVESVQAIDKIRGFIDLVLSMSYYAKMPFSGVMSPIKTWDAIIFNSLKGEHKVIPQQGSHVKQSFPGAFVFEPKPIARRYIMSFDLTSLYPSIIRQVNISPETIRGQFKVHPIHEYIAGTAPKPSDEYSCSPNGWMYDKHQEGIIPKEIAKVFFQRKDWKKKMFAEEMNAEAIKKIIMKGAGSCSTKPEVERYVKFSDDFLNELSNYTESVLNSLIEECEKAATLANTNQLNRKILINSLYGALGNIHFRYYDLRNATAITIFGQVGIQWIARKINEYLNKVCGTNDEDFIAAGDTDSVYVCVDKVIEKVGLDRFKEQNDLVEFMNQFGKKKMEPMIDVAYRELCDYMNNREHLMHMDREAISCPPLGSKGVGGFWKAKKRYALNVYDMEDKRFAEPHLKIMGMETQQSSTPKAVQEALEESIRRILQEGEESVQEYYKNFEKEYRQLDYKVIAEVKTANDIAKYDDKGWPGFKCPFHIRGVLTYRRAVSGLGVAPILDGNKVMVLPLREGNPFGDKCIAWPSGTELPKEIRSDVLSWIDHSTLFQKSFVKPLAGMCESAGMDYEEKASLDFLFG
assay_info: Counter-screen against bacteriophage T4 DNA polymerase
Assay type: biochemical
run_conditions: DRC-2; 40'; concentration 40
The response must be a number in % with no trailing unit.

What does the record list as % inhibition T4 40' for O=C(Cc1cc(=O)[nH]c(SCc2ccccc2)n1)Nc1ccc2c(c1)OCO2 ?
9

What does the record list as % inhibition T4 40' for Cc1ccc(NC(=O)C2CCN(C(=O)c3cc4ccsc4[nH]3)CC2)c(Br)c1 ?
8

What does the record list as % inhibition T4 40' for CC(=O)c1cc2c(N)c(/C(N)=N/C#N)sc2nc1C ?
-11

What does the record list as % inhibition T4 40' for O=C1N=C(Nc2cccc(Cl)c2Cl)S/C1=C\c1ccco1 [Molecule 3, O=C1N=C(S/C/1=C\c1ccco1)Nc1cccc(c1Cl)Cl] ?
29

What does the record list as % inhibition T4 40' for O=C(O)CCS(=O)(=O)c1ccc(-c2ccc(S(=O)(=O)CCC(=O)O)cc2)cc1 ?
-14

* * *

Hi there, I'd appreciate the recorded % inhibition Apol 90' for every entry that follows.
experimental_system: P. falciparum apicoplast DNA polymerase (Pf-apPOL) (Plasmodium falciparum, UniProt Q8ILY1)
Sequence (Q8ILY1 entry or part of it): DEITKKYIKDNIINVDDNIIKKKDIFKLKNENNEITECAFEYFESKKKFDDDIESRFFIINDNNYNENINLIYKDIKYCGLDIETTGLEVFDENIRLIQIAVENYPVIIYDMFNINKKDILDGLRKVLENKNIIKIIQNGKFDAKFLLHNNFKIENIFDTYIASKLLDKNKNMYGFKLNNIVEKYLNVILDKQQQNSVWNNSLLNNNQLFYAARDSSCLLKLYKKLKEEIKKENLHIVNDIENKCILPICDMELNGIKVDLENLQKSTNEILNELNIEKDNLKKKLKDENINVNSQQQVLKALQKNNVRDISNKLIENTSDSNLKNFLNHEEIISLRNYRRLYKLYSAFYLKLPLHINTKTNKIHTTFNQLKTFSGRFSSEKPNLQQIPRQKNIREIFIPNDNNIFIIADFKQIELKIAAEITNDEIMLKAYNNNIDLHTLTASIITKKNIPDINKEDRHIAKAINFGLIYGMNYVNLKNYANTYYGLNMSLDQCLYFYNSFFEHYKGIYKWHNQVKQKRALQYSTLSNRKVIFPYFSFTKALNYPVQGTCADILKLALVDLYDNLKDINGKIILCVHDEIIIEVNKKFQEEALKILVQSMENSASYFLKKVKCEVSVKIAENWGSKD
assay_info: Fluorescence-based high-throughput DNA polymerase assay (molecular beacon), primary screen and dose-response
Type: biochemical
run_conditions: DRC-1; 90'; concentration 20
The response must be a number in % with no trailing unit.

What does the record list as % inhibition Apol 90' for COc1ccc(C)cc1NC(=O)Cn1ccc2c(=O)[nH]ccc21 [Molecule 15, COc1ccc(cc1NC(=O)Cn1ccc2c1cc[nH]c2=O)C] ?
77.5716

What does the record list as % inhibition Apol 90' for CC(=O)Nc1cc(C(=O)NC(C)C)c2ccc(C)nc2c1 ?
30.2375

What does the record list as % inhibition Apol 90' for COCCN(CCOC)Cc1c(O)ccc2c1OC(=Cc1cc(Br)ccc1OC)C2=O ?
57.0182

What does the record list as % inhibition Apol 90' for CC1(C)CC(=O)C2=C(C1)OC1=C(C(=O)CC(C)(C)C1)C2c1ccc(O)cc1 ?
38.6225

What does the record list as % inhibition Apol 90' for COCC(=O)Nc1c(-c2cccc(F)c2)nc2cc(C)ccn12 ?
42.2252

What does the record list as % inhibition Apol 90' for COc1ccc(-c2cc3nc4c(c(=O)n3[nH]2)CCN(C(=O)CCc2ccccc2)C4)cc1 ?
69

What does the record list as % inhibition Apol 90' for Cc1cccc(CC(=O)N2CCc3c(nc4cc(-c5ccccc5)[nH]n4c3=O)C2)c1 ?
69

What does the record list as % inhibition Apol 90' for CCOc1cccc2cc(C(=O)Nc3nnc(-c4ccno4)o3)oc12 ?
63.6828

What does the record list as % inhibition Apol 90' for O=C(Nc1cccc(C(=O)Nc2ccc(S(=O)(=O)[O-])c3cc(S(=O)(=O)[O-])cc(S(=O)(=O)[O-])c23)c1)Nc1cccc(C(=O)Nc2ccc(S(=O)(=O)[O-])c3cc(S(=O)(=O)[O-])cc(S(=O)(=O)[O-])c23)c1.[Na+].[Na+].[Na+].[Na+].[Na+].[Na+] ?
56.1821

What does the record list as % inhibition Apol 90' for NS(=O)(=O)c1ccc(NC(=O)c2ccc(N3C(=O)CCC3=O)cc2)cc1 ?
33.4355

What does the record list as % inhibition Apol 90' for CCOc1ccc(/C=C2\N=C(c3cc([N+](=O)[O-])cc([N+](=O)[O-])c3)OC2=O)cc1 ?
80.2984

What does the record list as % inhibition Apol 90' for CCCCC(=O)N1CCc2c(nc3cc(-c4ccccc4Cl)[nH]n3c2=O)C1 ?
53.1884

What does the record list as % inhibition Apol 90' for COc1ccc(-c2cc(=O)c3cc(O)ccc3o2)cc1OC ?
31.7706

What does the record list as % inhibition Apol 90' for O=c1cc(-c2ccccc2Cl)oc2c(NS(=O)(=O)c3cc(Cl)cc(Cl)c3O)ccc(O)c12 ?
20.1462

What does the record list as % inhibition Apol 90' for Cc1cccc2c(C(=O)NC(C)C)cc(N(C)C)nc12 ?
44.2849

* * *

experimental_system: P. falciparum apicoplast DNA polymerase (Pf-apPOL) (Plasmodium falciparum, UniProt Q8ILY1)
assay_info: Fluorescence-based high-throughput DNA polymerase assay (molecular beacon), primary screen and dose-response
Format: biochemical
run_conditions: DRC-2; 5'; concentration 40
readout: % inhibition Apo pol 5' (%)
The response must be a number in % with no trailing unit.

Form field - read-out: % inhibition Apo pol 5'; system: P. falciparum apicoplast DNA polymerase (Pf-apPOL) (Plasmodium falciparum, UniProt Q8ILY1); submitted item: COc1ccc(NC(=O)Cn2ccc3c(=O)[nH]ccc32)cc1Cl [Molecule 10, COc1ccc(cc1Cl)NC(=O)Cn1ccc2c1cc[nH]c2=O]
37

Form field - read-out: % inhibition Apo pol 5'; system: P. falciparum apicoplast DNA polymerase (Pf-apPOL) (Plasmodium falciparum, UniProt Q8ILY1); submitted item: Cl.NC(CO)C(=O)NNCc1ccc(O)c(O)c1O (stereo not drawn)
47

Form field - read-out: % inhibition Apo pol 5'; system: P. falciparum apicoplast DNA polymerase (Pf-apPOL) (Plasmodium falciparum, UniProt Q8ILY1); submitted item: Cc1ccc(-n2nnc(C(=O)O)c2-c2ccccn2)c(F)c1
21

Form field - read-out: % inhibition Apo pol 5'; system: P. falciparum apicoplast DNA polymerase (Pf-apPOL) (Plasmodium falciparum, UniProt Q8ILY1); submitted item: COc1ccc(C)cc1NC(=O)Cn1ccc2c(=O)[nH]ccc21 [Molecule 15, COc1ccc(cc1NC(=O)Cn1ccc2c1cc[nH]c2=O)C]
34

Form field - read-out: % inhibition Apo pol 5'; system: P. falciparum apicoplast DNA polymerase (Pf-apPOL) (Plasmodium falciparum, UniProt Q8ILY1); submitted item: COc1ccc(-c2c(C(F)(F)F)nn3c(=O)cc(-c4cccc([N+](=O)[O-])c4)[nH]c23)cc1
62

Form field - read-out: % inhibition Apo pol 5'; system: P. falciparum apicoplast DNA polymerase (Pf-apPOL) (Plasmodium falciparum, UniProt Q8ILY1); submitted item: Cc1ccc2c(C(=O)NCCc3cccnc3)cc(NC(=O)C(C)C)cc2n1
49

Form field - read-out: % inhibition Apo pol 5'; system: P. falciparum apicoplast DNA polymerase (Pf-apPOL) (Plasmodium falciparum, UniProt Q8ILY1); submitted item: CN(C)S(=O)(=O)Oc1ccc(-c2noc(-c3ccc(Oc4cc(Cl)cc(Cl)c4)o3)n2)cc1
47

Form field - read-out: % inhibition Apo pol 5'; system: P. falciparum apicoplast DNA polymerase (Pf-apPOL) (Plasmodium falciparum, UniProt Q8ILY1); submitted item: O=C(NC(C(Cl)Cl)S(=O)(=O)c1ccccc1)c1ccccc1 (stereo not drawn)
65

Form field - read-out: % inhibition Apo pol 5'; system: P. falciparum apicoplast DNA polymerase (Pf-apPOL) (Plasmodium falciparum, UniProt Q8ILY1); submitted item: COc1ccc(CNC(=O)Cn2nc3c(c2NC(=O)Cc2cccs2)CSC3)cc1
32

Form field - read-out: % inhibition Apo pol 5'; system: P. falciparum apicoplast DNA polymerase (Pf-apPOL) (Plasmodium falciparum, UniProt Q8ILY1); submitted item: CCN1C(=O)C(=Cc2cccc(OC)c2O)SC1=S
38

Form field - read-out: % inhibition Apo pol 5'; system: P. falciparum apicoplast DNA polymerase (Pf-apPOL) (Plasmodium falciparum, UniProt Q8ILY1); submitted item: COc1ccccc1CC(=O)N1CCc2c(nc3cc(-c4ccccc4Cl)[nH]n3c2=O)C1
56

Form field - read-out: % inhibition Apo pol 5'; system: P. falciparum apicoplast DNA polymerase (Pf-apPOL) (Plasmodium falciparum, UniProt Q8ILY1); submitted item: O=C1N/C(=N/c2ccccc2Cl)S/C1=C/c1ccc([N+](=O)[O-])o1
25

Form field - read-out: % inhibition Apo pol 5'; system: P. falciparum apicoplast DNA polymerase (Pf-apPOL) (Plasmodium falciparum, UniProt Q8ILY1); submitted item: COc1ccc(S(=O)(=O)/N=C2\NC(=O)/C(=C3\C(=O)Nc4ccc([N+](=O)[O-])cc43)S2)cc1
63

Form field - read-out: % inhibition Apo pol 5'; system: P. falciparum apicoplast DNA polymerase (Pf-apPOL) (Plasmodium falciparum, UniProt Q8ILY1); submitted item: O=C(Cc1cc(=O)[nH]c(SCc2ccccc2)n1)Nc1ccc2c(c1)OCO2
27

Form field - read-out: % inhibition Apo pol 5'; system: P. falciparum apicoplast DNA polymerase (Pf-apPOL) (Plasmodium falciparum, UniProt Q8ILY1); submitted item: CSC1=C(C#N)C(=C(C#N)C#N)NC(c2ccccc2)=N1 [Molecule 2, CSc1nc([nH]c(=C(C#N)C#N)c1C#N)c1ccccc1]
57

Form field - read-out: % inhibition Apo pol 5'; system: P. falciparum apicoplast DNA polymerase (Pf-apPOL) (Plasmodium falciparum, UniProt Q8ILY1); submitted item: Cc1ccc(NC(=O)C2CCN(C(=O)c3cc4ccsc4[nH]3)CC2)c(Br)c1
54

Form field - read-out: % inhibition Apo pol 5'; system: P. falciparum apicoplast DNA polymerase (Pf-apPOL) (Plasmodium falciparum, UniProt Q8ILY1); submitted item: O=[N+]([O-])c1ccc(/C=C/c2ccc3ccccc3n2)o1
16

Form field - read-out: % inhibition Apo pol 5'; system: P. falciparum apicoplast DNA polymerase (Pf-apPOL) (Plasmodium falciparum, UniProt Q8ILY1); submitted item: O=C(NCC1CCN(C2CCCC2)CC1)C(=O)NC1CCCC1
45

Form field - read-out: % inhibition Apo pol 5'; system: P. falciparum apicoplast DNA polymerase (Pf-apPOL) (Plasmodium falciparum, UniProt Q8ILY1); submitted item: CCCCc1ccc(NC(=O)CSc2nc(O)c(C#N)c(C3CCCCC3)n2)c(C)c1
61

Form field - read-out: % inhibition Apo pol 5'; system: P. falciparum apicoplast DNA polymerase (Pf-apPOL) (Plasmodium falciparum, UniProt Q8ILY1); submitted item: Oc1cccc2ccc(/C=C/c3ccc4c(c3)OCO4)nc12
52

Form field - read-out: % inhibition Apo pol 5'; system: P. falciparum apicoplast DNA polymerase (Pf-apPOL) (Plasmodium falciparum, UniProt Q8ILY1); submitted item: O=C(O)c1ccc(-c2nc3cc(-c4ccc5nc(-c6ccc(C(=O)O)cc6)[nH]c5c4)ccc3[nH]2)cc1
37

Form field - read-out: % inhibition Apo pol 5'; system: P. falciparum apicoplast DNA polymerase (Pf-apPOL) (Plasmodium falciparum, UniProt Q8ILY1); submitted item: CC(C)CCNC(=O)c1cnn2c(O)cc(CSc3ccc(Cl)cc3)nc12
66

Form field - read-out: % inhibition Apo pol 5'; system: P. falciparum apicoplast DNA polymerase (Pf-apPOL) (Plasmodium falciparum, UniProt Q8ILY1); submitted item: CC(=O)c1cc2c(N)c(/C(N)=N/C#N)sc2nc1C
40

Form field - read-out: % inhibition Apo pol 5'; system: P. falciparum apicoplast DNA polymerase (Pf-apPOL) (Plasmodium falciparum, UniProt Q8ILY1); submitted item: O=C(Nc1ccc2c(c1)Cc1cc(NC(=O)c3ccco3)ccc1-2)c1ccco1
53

Form field - read-out: % inhibition Apo pol 5'; system: P. falciparum apicoplast DNA polymerase (Pf-apPOL) (Plasmodium falciparum, UniProt Q8ILY1); submitted item: Cc1nc(C)c2c(n1)N(CC1CCCCC1)C(=O)CC2
30

Form field - read-out: % inhibition Apo pol 5'; system: P. falciparum apicoplast DNA polymerase (Pf-apPOL) (Plasmodium falciparum, UniProt Q8ILY1); submitted item: C=CCOc1c(Br)cc(Br)cc1/C=C1\SC(=N)NC1=O
54

Form field - read-out: % inhibition Apo pol 5'; system: P. falciparum apicoplast DNA polymerase (Pf-apPOL) (Plasmodium falciparum, UniProt Q8ILY1); submitted item: COc1ccc2c(c1)C(c1ccccc1OC)CC(=O)O2 (stereo not drawn)
64

Form field - read-out: % inhibition Apo pol 5'; system: P. falciparum apicoplast DNA polymerase (Pf-apPOL) (Plasmodium falciparum, UniProt Q8ILY1); submitted item: O=C(c1c[nH]c2ncccc12)N1CCCC1 [Molecule 63, O=C(c1c[nH]c2c1cccn2)N1CCCC1]
42

Form field - read-out: % inhibition Apo pol 5'; system: P. falciparum apicoplast DNA polymerase (Pf-apPOL) (Plasmodium falciparum, UniProt Q8ILY1); submitted item: CCCCOC(=O)CCCCCN1C(=O)C(=Cc2ccc(OC)cc2)SC1=S
45

Form field - read-out: % inhibition Apo pol 5'; system: P. falciparum apicoplast DNA polymerase (Pf-apPOL) (Plasmodium falciparum, UniProt Q8ILY1); submitted item: O=C(Nc1cccc(Cl)c1)Nc1nnc(-c2ccncc2)s1
48

Form field - read-out: % inhibition Apo pol 5'; system: P. falciparum apicoplast DNA polymerase (Pf-apPOL) (Plasmodium falciparum, UniProt Q8ILY1); submitted item: Cc1ccc(C)n1-c1ccc(C(=O)NNC(=O)c2ccc3nccnc3c2)cc1
55

Form field - read-out: % inhibition Apo pol 5'; system: P. falciparum apicoplast DNA polymerase (Pf-apPOL) (Plasmodium falciparum, UniProt Q8ILY1); submitted item: COCCN(CCOC)Cc1c(O)ccc2c1OC(=Cc1cc(Br)ccc1OC)C2=O
59

Form field - read-out: % inhibition Apo pol 5'; system: P. falciparum apicoplast DNA polymerase (Pf-apPOL) (Plasmodium falciparum, UniProt Q8ILY1); submitted item: COc1ccc(C2CC(c3ccc(Cl)cc3Cl)Nc3nc(N)nn32)cc1OC (stereo not drawn)
39
